Source of measurements: ChEMBL document CHEMBL4251635

# Tested on: RAW264.7
# PROTOCOL_SUMMARY: Cytotoxicity against mouse RAW264.7 cells assessed as reduction in cell viability at 25 uM after 48 hrs by MTT assay relative to control
# Format: cell-based
# STUDY_CONDITIONS: raw264.7, 48 h

# SMILES_STRING, SUBJECT_OF_TEST, Activity [%]
data = [
    ("O=C(Nc1ccc(F)cc1)Nc1cccc(-c2nc3ccccc3o2)c1", "RAW264.7", 2.98),
    ("O=[N+]([O-])c1ccc(NC(=S)Nc2cccc(-c3nc4ccccc4o3)c2)cc1", "RAW264.7", 88.12),
    ("Fc1ccc(NC(=S)Nc2cccc(-c3nc4ccccc4o3)c2)cc1", "RAW264.7", 96.02),
    ("Cc1ccc2oc(-c3cccc(NC(=S)Nc4ccc(Cl)cc4)c3)nc2c1", "RAW264.7", 55.82),
    ("O=C(NCc1ccccc1)Nc1cccc(-c2nc3ccccc3o2)c1", "RAW264.7", 2.12),
    ("S=C(Nc1ccccc1)Nc1cccc(-c2nc3ccccc3o2)c1", "RAW264.7", 96.23),
    ("COc1ccc(NC(=O)Nc2cccc(-c3nc4ccccc4o3)c2)cc1", "RAW264.7", 17.26),
    ("Cc1ccc2oc(-c3cccc(NC(=O)Nc4ccc(F)cc4)c3)nc2c1", "RAW264.7", 3.17),
    ("O=C(Nc1ccccc1)Nc1cccc(-c2nc3ccccc3o2)c1", "RAW264.7", 48.38),
    ("S=C(NCc1ccccc1)Nc1cccc(-c2nc3ccccc3o2)c1", "RAW264.7", 47.21),
    ("CC(C)c1ccc(NC(=O)Nc2cccc(-c3nc4ccccc4o3)c2)cc1", "RAW264.7", 3.52),
    ("O=C(Nc1ccc([N+](=O)[O-])cc1)Nc1cccc(-c2nc3ccccc3o2)c1", "RAW264.7", 95.11),
    ("Cc1ccc2oc(-c3cccc(NC(=S)NCc4ccccc4)c3)nc2c1", "RAW264.7", 38.91),
]
